# System Name: T1, APC8910-AA
# T1 chain: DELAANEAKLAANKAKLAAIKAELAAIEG
# Assay Notes: two-hybrid library CCmax;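 further: natural log of median RNA to DNA barcode read ratio; higher means stronger binding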
# Test Parameters: mean of both orientations
Give interaction score for every item shown.

response.value for DKNAALKAKAAALKAELAANEAKAAALKG [APC5383-AA] (field: interaction score) = -1.6

For record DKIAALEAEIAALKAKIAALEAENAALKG [4H2148-AA] the listed interaction score is -1.35

Summary for this binder, DELAAEEAKLAAIKAELAAIEAELAANEG [APC6108-AA] : interaction score is -2.2

The value of interaction score measured for the binder DKLAAIKAELAAIEAKLAAIKAKNAALKG [APC1015-AA] turned out to be -1.34

For this binder ( DENAALEAEAAALEAELAAEEAENAALEG [APC4264-AA] ), measured interaction score is -1.81

Please fill in: interaction score reported for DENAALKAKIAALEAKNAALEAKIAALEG [4H1845-AA] = -1.69

Reported interaction score of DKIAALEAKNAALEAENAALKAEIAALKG [4H2458-AA] : -1.49

Short answer for DEIAALKAENAALKAENAALKAKIAALEG [4H733-AA] : interaction score was -1.37

Field interaction score (entry DEIAALKAKIAALEAKIAALEAKNAALEG [4H807-AA] ) reads -1.59

The recorded interaction score for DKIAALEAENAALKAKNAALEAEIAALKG [4H2290-AA] is -1.59

The recorded interaction score for DKAAALKAELAAEEAENAALEAKNAALKG [APC3645-AA] is -1.79

Given item DENAALEAELAAIEAKLAAIKAKLAAIKG [APC4011-AA] , the value recorded as its interaction score is -1.43

For reference, reported interaction score for DEAAALEAENAALEAELAAIEAKNAALKG [APC2405-AA] stands at -1.63

Kindly note the recorded interaction score for DKIAALEAEIAALKAENAALKAKNAALEG [4H2143-AA] , which is -1.84

# interaction score (binder: DENAALEAENAALEAKAAALKAELAAEEG [APC4436-AA] ) is -1.76

The reported interaction score of the binder DEAAALEAEAAALEAKAAALKAKLAAEKG [APC2237-AA] was -1.72

# interaction score (binder: DEIAALKAENAALKAEIAALKAENAALKG [4H716-AA] ) is -1.89

Record DKLAAEKAELAAIEAKLAANKAKLAANKG [APC7099-AA] . Reported interaction score: -2.07

Measured interaction score of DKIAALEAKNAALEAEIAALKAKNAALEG [4H2447-AA] : -1.68

Short answer for DELAAIEAEAAALEAKAAALKAEAAALEG [APC232-AA] : interaction score was -2.1

The binder listed as DKLAAIKAENAALEAKAAALKAENAALEG [APC1434-AA] shows interaction score equal to -1.81
